- target: human F508del-CFTR (Homo sapiens, UniProt P13569, DEL508-508)
- Sequence (P13569 with tags, fused parts or gaps DEL508-508): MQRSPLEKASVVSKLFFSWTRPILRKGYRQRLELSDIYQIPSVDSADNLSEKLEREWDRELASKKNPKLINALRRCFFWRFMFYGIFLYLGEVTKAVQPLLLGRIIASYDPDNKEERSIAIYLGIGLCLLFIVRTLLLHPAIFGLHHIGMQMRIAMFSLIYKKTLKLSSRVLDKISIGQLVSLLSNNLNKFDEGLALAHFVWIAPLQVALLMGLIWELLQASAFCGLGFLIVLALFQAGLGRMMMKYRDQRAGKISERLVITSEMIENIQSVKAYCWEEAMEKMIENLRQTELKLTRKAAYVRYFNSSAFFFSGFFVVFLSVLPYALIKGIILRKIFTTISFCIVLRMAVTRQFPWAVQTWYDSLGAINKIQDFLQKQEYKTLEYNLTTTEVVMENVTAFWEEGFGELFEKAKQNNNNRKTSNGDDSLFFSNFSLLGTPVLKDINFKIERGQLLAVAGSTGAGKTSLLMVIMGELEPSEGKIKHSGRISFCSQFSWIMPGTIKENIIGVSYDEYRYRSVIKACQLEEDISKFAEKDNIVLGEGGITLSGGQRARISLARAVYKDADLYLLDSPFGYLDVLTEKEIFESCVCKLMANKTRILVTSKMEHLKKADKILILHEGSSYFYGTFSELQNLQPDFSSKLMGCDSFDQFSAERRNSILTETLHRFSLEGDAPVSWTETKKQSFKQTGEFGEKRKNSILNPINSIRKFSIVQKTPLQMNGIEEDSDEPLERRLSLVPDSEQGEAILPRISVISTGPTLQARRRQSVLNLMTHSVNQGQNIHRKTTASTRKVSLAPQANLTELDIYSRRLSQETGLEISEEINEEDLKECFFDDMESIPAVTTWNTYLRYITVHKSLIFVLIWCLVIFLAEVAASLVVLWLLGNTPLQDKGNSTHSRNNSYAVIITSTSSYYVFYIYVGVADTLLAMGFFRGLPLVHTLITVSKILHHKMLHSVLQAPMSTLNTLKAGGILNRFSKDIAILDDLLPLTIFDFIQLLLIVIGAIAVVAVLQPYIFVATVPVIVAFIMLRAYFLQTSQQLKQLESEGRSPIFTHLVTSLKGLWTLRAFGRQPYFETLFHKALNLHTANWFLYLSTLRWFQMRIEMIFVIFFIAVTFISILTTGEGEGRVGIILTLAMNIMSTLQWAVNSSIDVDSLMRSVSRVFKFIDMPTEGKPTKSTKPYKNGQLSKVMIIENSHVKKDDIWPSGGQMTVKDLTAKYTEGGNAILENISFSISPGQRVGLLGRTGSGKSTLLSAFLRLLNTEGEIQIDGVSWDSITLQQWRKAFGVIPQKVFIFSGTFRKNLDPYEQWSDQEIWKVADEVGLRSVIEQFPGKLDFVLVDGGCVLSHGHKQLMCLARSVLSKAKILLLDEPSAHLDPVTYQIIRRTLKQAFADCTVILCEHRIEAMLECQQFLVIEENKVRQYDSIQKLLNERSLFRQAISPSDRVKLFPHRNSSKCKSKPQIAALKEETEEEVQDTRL
- assay method text: F508del-CFTR cell surface expression (corrector activity), DiscoveRx ß-galactosidase complementation chemiluminescence assay in recombinant U2OS cell line
- condition set: U2OS, in relation to the Emax of the corrector lumacaftor (=100%); U2OS cells, 16h compound incubation; arithmetic mean
Documented Emax across a set of compounds
property label: Emax (%)

sample smiles: COc1cc(CCNC(=O)[C@@H]2CC(=O)N(C)[C@@H](CC(C)C)C(=O)N(C)[C@H](Cc3nc(-c4ccc(F)cn4)no3)C(=O)N[C@H](Cc3ccccc3)COc3cnc4ccc(F)cc4c3C(=O)N2)on1
result unit: %
data value: 413

sample smiles: CCOCC[C@@H]1C(=O)N[C@H](Cc2ccccc2)COc2cc(C)nc(OC)c2C(=O)N[C@H](C(=O)NCCc2cc(C3CC3)no2)CC(=O)N(C)[C@@H](CC(C)C)C(=O)N1C
result unit: %
data value: 423

sample smiles: COc1noc(CCNC(=O)[C@@H]2CC(=O)N(C)[C@@H](CC(C)C)C(=O)N(C)[C@H](Cc3nc(C(F)(F)F)no3)C(=O)N[C@H](Cc3ccccc3)COc3ccc4c(cc(F)c[n+]4[O-])c3C(=O)N2)n1
result unit: %
data value: 506

sample smiles: COc1cccc(CCNC(=O)[C@@H]2CC(=O)N(C)[C@@H](CC(C)C)C(=O)N(C)[C@H](CC(C)(C)C)C(=O)N[C@H](Cc3ccccc3)COc3cc(C)nc(OC)c3C(=O)N2)c1
result unit: %
data value: 336

sample smiles: COc1cc(CCNC(=O)[C@@H]2CC(=O)N(C)[C@@H](CC(C)C)C(=O)N(C)[C@H](Cc3cc(OC)no3)C(=O)N[C@H](Cc3ccccc3)COc3ccc4ncc(F)cc4c3C(=O)N2)on1
result unit: %
data value: 359

sample smiles: COc1noc(CCNC(=O)[C@@H]2CC(=O)N(C)[C@@H](CC(C)C)C(=O)N(C)[C@H](Cc3nc(C(F)(F)F)no3)C(=O)N[C@H](Cc3ccccc3)COc3cc(C)c4ncccc4c3C(=O)N2)n1
result unit: %
data value: 492

sample smiles: COc1nccc2c1C(=O)N[C@H](C(=O)NCCc1cc(C)no1)CC(=O)N(C)[C@@H](CC(C)C)C(=O)N(C)[C@H](CCOc1ccccc1)C(=O)N[C@H](Cc1ccccc1)CO2
result unit: %
data value: 341

sample smiles: CC(C)C[C@H]1C(=O)N(C)[C@H](Cc2nc(-c3ccc(F)cn3)no2)C(=O)N[C@H](Cc2ccccc2)COc2cnc3ccc(F)cc3c2C(=O)N[C@H](C(=O)NCCc2noc(C3CC3)n2)CC(=O)N1C
result unit: %
data value: 346

sample smiles: COc1noc(CCNC(=O)[C@@H]2CC(=O)N(C)[C@@H](CC(C)C)C(=O)N(C)C3(CC(F)(F)C3)C(=O)N[C@H](Cc3ccccc3)COc3ccc4cnc(C)cc4c3C(=O)N2)n1
result unit: %
data value: 383

sample smiles: COc1cc(CCNC(=O)[C@@H]2CC(=O)N(C)[C@@H](CC(C)C)C(=O)N3CCCC[C@@H]3C(=O)N[C@H](Cc3ccccc3)COc3ccc4ncccc4c3C(=O)N2)on1
result unit: %
data value: 332

----------
Documented Emax across a set of molecules
- target: human F508del-CFTR (Homo sapiens, UniProt P13569, DEL508-508)
- assay method text: F508del-CFTR cell surface expression (corrector activity), DiscoveRx ß-galactosidase complementation chemiluminescence assay in recombinant U2OS cell line
- condition set: U2OS, in relation to Emax of corrector lumacaftor (=100%); arithmetic mean values
property label: Emax

molecule: CC(C)C[C@H]1C(=O)N(C)C2(CCC2)C(=O)N[C@H](Cc2ccccc2)COc2cnc3ccc(F)cc3c2C(=O)N[C@H](C(=O)NCCc2nc(C3CC3)no2)CC(=O)N1C [Example 692]
data value: 301%
--
molecule: COc1cc(CCNC(=O)[C@@H]2CC(=O)N(C)[C@@H](CC(C)C)C(=O)N3CCCC[C@@H]3C(=O)N[C@H](Cc3ccccc3)COc3ccc4ncc(F)cc4c3C(=O)N2)on1 [Example 769]
data value: 346%
--
molecule: CC(C)C[C@H]1C(=O)N2CCCC[C@@H]2C(=O)N[C@H](Cc2ccccc2)COc2cnc3ccc(F)cc3c2C(=O)N[C@H](C(=O)NCCc2cc(C3CC3)on2)CC(=O)N1C [Example 639]
data value: 305%
--
molecule: CC(C)C[C@H]1C(=O)N(C)C2(CC2)C(=O)N[C@H](Cc2ccccc2)COc2cnc3ccc(F)cc3c2C(=O)N[C@H](C(=O)NCCc2cc(C3CC3)no2)CC(=O)N1C [Example 519]
data value: 332%
--
molecule: COc1cc(CCNC(=O)[C@@H]2CC(=O)N(C)[C@@H](CC(C)C)C(=O)N(C)[C@H](C)C(=O)N[C@H](Cc3ccccc3)COc3ccc4ncc(F)cc4c3C(=O)N2)on1 [Example 786]
data value: 337%

----------
Documented pEC50 across a set of molecules
- target: human F508del-CFTR (Homo sapiens, UniProt P13569, DEL508-508)
- assay method text: F508del-CFTR cell surface expression (corrector activity), DiscoveRx ß-galactosidase complementation chemiluminescence assay in recombinant U2OS cell line;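 also: U2OS cells co-expressing ProLink-tagged F508del-CFTR and a membrane-anchored enzyme acceptor, where more surface CFTR restores β-galactosidase activity measured by chemiluminescence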
- condition set: EC50, F508del-CFTR cell surface expression, U2OS cells, 16h compound incubation; geomean values
pEC50: −log10 of the molar value.

molecule: COc1cccc(CCNC(=O)[C@@H]2CC(=O)N(C)[C@@H](CC(C)C)C(=O)N(C)CC(=O)N[C@H](Cc3ccccc3)COc3ccc4c(c3C(=O)N2)CCO4)c1
target: human F508del-CFTR (Homo sapiens, UniProt P13569, DEL508-508)
pEC50: 6.42
//
molecule: COc1cccc(CCNC(=O)[C@@H]2CC(=O)N(C)[C@@H](CC(C)C)C(=O)N3CCN(c4ccccc4)C[C@@H]3C(=O)N[C@H](Cc3ccccc3)COc3cnc4ccccc4c3C(=O)N2)c1
target: human F508del-CFTR (Homo sapiens, UniProt P13569, DEL508-508)
pEC50: 7.12
//
molecule: COc1cccc(CCNC(=O)[C@@H]2CC(=O)N(C)[C@@H](CC(C)C)C(=O)N3CCCC[C@@H]3C(=O)N[C@H](Cc3ccccc3)COc3cnc4cccc(F)c4c3C(=O)N2)c1
target: human F508del-CFTR (Homo sapiens, UniProt P13569, DEL508-508)
pEC50: 6.39
//
molecule: Cc1cc(CCNC(=O)[C@@H]2CC(=O)N(C)[C@@H](CC(C)C)C(=O)N3CCN(CCCO)C[C@@H]3C(=O)N[C@H](Cc3ccccc3)COc3ccc4ccccc4c3C(=O)N2)on1
target: human F508del-CFTR (Homo sapiens, UniProt P13569, DEL508-508)
pEC50: 6.05
//
molecule: CC(C)C[C@H]1C(=O)N2CCCC[C@H]2C(=O)N[C@H](Cc2ccccc2)COc2ccc3ncc(F)cc3c2C(=O)N[C@H](C(=O)NCCc2noc(C3CC3)n2)CC(=O)N1C
target: human F508del-CFTR (Homo sapiens, UniProt P13569, DEL508-508)
pEC50: 6.63
//
molecule: COc1cccc(CCNC(=O)[C@@H]2CC(=O)N(C)[C@@H](CC(C)C)C(=O)N(C)[C@@H](COCc3ccccc3)C(=O)N[C@H](Cc3ccccc3)COc3ccc4ccccc4c3C(=O)N2)c1
target: human F508del-CFTR (Homo sapiens, UniProt P13569, DEL508-508)
pEC50: 7.19
//
molecule: Cc1cc(CCNC(=O)[C@@H]2CC(=O)N(C)[C@@H](CC(C)C)C(=O)N3CCCC[C@H]3C(=O)N[C@H](Cc3ccccc3)COc3ccc4ccccc4c3C(=O)N2)on1
target: human F508del-CFTR (Homo sapiens, UniProt P13569, DEL508-508)
pEC50: 6.28
//
molecule: COc1cccc(CCNC(=O)[C@@H]2CC(=O)N(C)[C@@H](CC(C)C)C(=O)N3CCN(S(=O)(=O)c4ccc5c(c4)OCCN5C)C[C@@H]3C(=O)N[C@H](Cc3ccccc3)COc3ccc4ccccc4c3C(=O)N2)c1
target: human F508del-CFTR (Homo sapiens, UniProt P13569, DEL508-508)
pEC50: 6.94
//
molecule: Cc1cc(CCNC(=O)[C@@H]2CC(=O)N(C)[C@@H](CC(C)C)C(=O)N3CCN(CC(C)C)C[C@@H]3C(=O)N[C@H](Cc3ccccc3)COc3cnc4ccccc4c3C(=O)N2)on1
target: human F508del-CFTR (Homo sapiens, UniProt P13569, DEL508-508)
pEC50: 6.70
//
molecule: COc1nccc2c1C(=O)N[C@H](C(=O)NCCc1cc(C3CC3)no1)CC(=O)N(C)[C@@H](CC(C)C)C(=O)N1CCC3(CC3)C[C@@H]1C(=O)N[C@H](Cc1ccccc1)CO2 [Example 668]
target: human F508del-CFTR (Homo sapiens, UniProt P13569, DEL508-508)
pEC50: 6.80
//
molecule: COc1cccc(CCNC(=O)[C@@H]2CC(=O)N(C)[C@@H](CC(C)C)C(=O)N(C)CC(=O)N[C@H](Cc3ccccc3)COc3ccc4c(c3C(=O)N2)OC(F)(F)O4)c1
target: human F508del-CFTR (Homo sapiens, UniProt P13569, DEL508-508)
pEC50: 6.67
//
molecule: Cc1nc2ccc3c(c2o1)C(=O)N[C@H](C(=O)NCCc1cc(-c2ccccc2)no1)CC(=O)N(C)[C@@H](CC(C)C)C(=O)N(C)C1(CC1)C(=O)N[C@H](Cc1ccccc1)CO3
target: human F508del-CFTR (Homo sapiens, UniProt P13569, DEL508-508)
pEC50: 6.17
//
molecule: COc1nc(C)cc2c1C(=O)N[C@H](C(=O)NCCc1noc(C3CC3)n1)CC(=O)N(C)[C@@H](CC(C)C)C(=O)N1CCCC[C@@H]1C(=O)N[C@H](Cc1ccccc1)CO2
target: human F508del-CFTR (Homo sapiens, UniProt P13569, DEL508-508)
pEC50: 6.42
//
molecule: COc1cccc(CCNC(=O)[C@@H]2CC(=O)N(C)[C@@H](CC(C)C)C(=O)N3CCN(S(=O)(=O)Cc4cccc5cccnc45)C[C@@H]3C(=O)N[C@H](Cc3ccccc3)COc3ccc4ccccc4c3C(=O)N2)c1
target: human F508del-CFTR (Homo sapiens, UniProt P13569, DEL508-508)
pEC50: 6.96
//
molecule: COc1cccc(CCNC(=O)[C@@H]2CC(=O)N(C)[C@@H](CC(C)C)C(=O)N(C)CC(=O)N[C@H](Cc3ccccc3)COc3nccc(OC)c3C(=O)N2)c1
target: human F508del-CFTR (Homo sapiens, UniProt P13569, DEL508-508)
pEC50: 6.09
//
molecule: COc1nccc2c1C(=O)N[C@H](C(=O)NCCc1cc(C)no1)CC(=O)N(C)[C@@H](CC(C)C)C(=O)N1CCN(c3ccccc3)C[C@@H]1C(=O)N[C@H](Cc1ccccc1)CO2
target: human F508del-CFTR (Homo sapiens, UniProt P13569, DEL508-508)
pEC50: 6.43
//
molecule: Cc1cc(CCNC(=O)[C@@H]2CC(=O)N(C)[C@@H](CC(C)C)C(=O)N(C)[C@@H](CCOCc3ccccc3)C(=O)N[C@H](Cc3ccccc3)COc3cnc4ccccc4c3C(=O)N2)on1
target: human F508del-CFTR (Homo sapiens, UniProt P13569, DEL508-508)
pEC50: 6.40
//
molecule: CC(C)C[C@H]1C(=O)N(C)C2(CC2)C(=O)N[C@H](Cc2ccccc2)COc2cnc3ccccc3c2C(=O)N[C@H](C(=O)NCCc2cc(C3CC3)no2)CC(=O)N1C
target: human F508del-CFTR (Homo sapiens, UniProt P13569, DEL508-508)
pEC50: 6.48
//
molecule: COc1nccc2c1C(=O)N[C@H](C(=O)NCCc1nc(C3CC3)no1)CC(=O)N(C)[C@@H](CC(C)C)C(=O)N(C)[C@@H](COCc1ccccc1)C(=O)N[C@H](Cc1ccccc1)CO2
target: human F508del-CFTR (Homo sapiens, UniProt P13569, DEL508-508)
pEC50: 7.03
